system: HLA-A*02:01
protocol details: IEDB peptide-MHC binding, purified MHC/competitive/fluorescence; bounds were set here for any values at or beyond the usual limits of such assays
test conditions: source organism: Zaire ebolavirus
pIC50: −log10 of the molar value.

>  <macromolecule sequence>
VVAFLILPQ

>  <pIC50>
≤ 2.85

$$$$
>  <macromolecule sequence>
WAFWETKKN

>  <pIC50>
≤ 3.67

$$$$
>  <macromolecule sequence>
IALGVATAH

>  <pIC50>
≤ 3.65

$$$$
>  <macromolecule sequence>
PQLSAIALG

>  <pIC50>
≤ 3.37

$$$$
>  <macromolecule sequence>
GAVKYLEGH

>  <pIC50>
≤ 3.28

$$$$
